biological target: Tyrosine-protein kinase BTK (Homo sapiens, UniProt Q06187); assay: Inhibition of BTK in human PBMC assessed as reduction in CD69 expression
Sequence (Q06187 whole entry): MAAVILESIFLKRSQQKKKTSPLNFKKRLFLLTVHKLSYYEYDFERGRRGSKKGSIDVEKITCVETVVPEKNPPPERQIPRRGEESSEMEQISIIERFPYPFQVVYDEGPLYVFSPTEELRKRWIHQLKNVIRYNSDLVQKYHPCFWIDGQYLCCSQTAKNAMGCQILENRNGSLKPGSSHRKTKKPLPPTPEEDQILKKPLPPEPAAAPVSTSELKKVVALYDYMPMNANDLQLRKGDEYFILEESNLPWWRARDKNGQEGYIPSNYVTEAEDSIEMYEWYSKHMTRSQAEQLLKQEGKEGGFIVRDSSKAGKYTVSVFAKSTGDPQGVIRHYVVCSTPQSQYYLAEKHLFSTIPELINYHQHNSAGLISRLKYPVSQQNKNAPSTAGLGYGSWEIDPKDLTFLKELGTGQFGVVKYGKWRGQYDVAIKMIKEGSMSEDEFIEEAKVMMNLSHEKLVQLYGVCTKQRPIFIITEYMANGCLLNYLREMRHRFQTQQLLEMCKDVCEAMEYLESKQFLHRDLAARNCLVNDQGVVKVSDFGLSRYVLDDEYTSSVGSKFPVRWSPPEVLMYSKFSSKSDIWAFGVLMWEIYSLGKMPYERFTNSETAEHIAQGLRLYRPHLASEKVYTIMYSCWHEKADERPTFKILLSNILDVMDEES
metric: IC50 (nM)
Quick note: give the figure in nM, leave out the unit.

Given the molecule `O=C(Nc1cccc([C@@H]2CN(c3ncnc4[nH]ccc34)CCN2CCO)c1)Nc1c(F)cccc1N1CCCC1` , what is its reported IC50?
240
